The origin of these recorded values is paper PMC10425845.

- Assay System: T1, Strep-REC114 1-159 (PH domain) (mouse, UniProt Q9CWH4 1-159)
- T1 sequence (looked up): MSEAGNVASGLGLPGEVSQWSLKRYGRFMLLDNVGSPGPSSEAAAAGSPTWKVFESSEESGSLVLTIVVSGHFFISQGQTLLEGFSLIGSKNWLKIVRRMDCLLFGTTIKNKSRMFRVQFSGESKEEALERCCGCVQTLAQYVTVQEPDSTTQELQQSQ
- Experiment Summary: ITC
pKd: −log10 of the molar value.
Assay Endpoint: pKd

[[record]]
binder = "MNFNVWNVKEMLSIPSGSGITKP (domain or fragment, mouse, UniProt Q6PDM4 1-23, looked up) [His-MBP-IHO1 1-23]"
reported = 4.52

